Each record here notes measured IC50.
- measured-on: human factor Xa (Homo sapiens, UniProt P00742)
- Construct: released from the colourless chromogenic substrate by human factor Xa; purchased Roche
- Sequence (P00742 235-488 limits assumed): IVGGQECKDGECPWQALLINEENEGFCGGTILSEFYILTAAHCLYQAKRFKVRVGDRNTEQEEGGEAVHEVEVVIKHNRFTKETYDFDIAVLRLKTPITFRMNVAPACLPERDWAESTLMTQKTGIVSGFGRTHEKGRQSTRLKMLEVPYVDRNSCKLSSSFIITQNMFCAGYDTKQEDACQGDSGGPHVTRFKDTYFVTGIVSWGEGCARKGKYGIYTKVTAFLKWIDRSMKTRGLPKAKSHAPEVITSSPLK
- Sequence (P00742 41-179 partner limits assumed): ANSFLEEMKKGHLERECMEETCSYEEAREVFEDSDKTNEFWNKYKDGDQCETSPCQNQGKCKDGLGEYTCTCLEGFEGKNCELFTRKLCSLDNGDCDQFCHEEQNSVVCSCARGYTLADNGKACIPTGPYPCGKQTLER
- procedure-text: Inhibition of factor Xa, enzyme-kinetic measurement with chromogenic substrate
- Type: biochemical
- assay-setup: human factor Xa (Roche) 0.175 U/ml, substrate Chromozym X 200 μMol/l, pH 8.0, 37° C., 405 nm
The figure you give is taken to be in µM; do not add the unit.

N=C(N)c1ccc(O)c(CNC(=O)c2ccc(-n3nc(CN)c4c3CCC4)c(C(F)(F)F)c2)c1 [(6)] :: 0.007
Cc1nn(-c2ccc(C(=O)NCc3cc(C(=N)N)ccc3O)cc2C(F)(F)F)c2c1CCC2 [(4)] :: 0.015
Cc1cc(NC(=O)Cc2cc(C(=N)N)ccc2O)ccc1-c1ncnc2c1CCC2 [(3)] :: 0.062

Q) Entry under review: Cc1cc(NC(=O)Cc2cc(C(=N)N)ccc2O)ccc1-n1c(N2CCCC2)nc2ccccc21 [(1)] . Reported IC50?
A) 0.14
